Listed below: RP-LC retention time values for each entry.
experiment: gradient 5% acetonitrile 3 min, to 50% in 2 min, to 85% in 15 min, held 3 min, 100 µL/min; settings: column: Zorbax Extend-C18 2.1 x 50 mm; eluents: water / acetonitrile, 0.1% formic acid
Answer with a number only, understood to be in s.

Please review the following examples before continuing.
COCCn1nc2n(c1=O)CCN(C(=O)c1ccco1)CC2; 585
Cc1cc(C)cc(NC(=O)C2(C)Oc3cccnc3NC2=O)c1 (stereo not given); 702
COc1ccc(-c2cn3cccnc3n2)cc1NC(=O)c1cccc(Br)c1; 748

Request: Annotate the compound O=C(NCc1cccnc1)C1CCN(C(=O)c2ncn3c2COC(c2ccccc2)C3)CC1 (stereo not given) with its measured RP-LC retention time.
Response: 568

Request: Annotate the compound `O=C(Cc1csc(NC(=O)NC2CCCCC2)n1)NCc1c(F)cccc1F` with its measured RP-LC retention time.
Response: 737

====

assay: gradient 5% acetonitrile 3 min, to 50% in 2 min, to 85% in 15 min, held 3 min, 100 µL/min; conditions: column: Zorbax Extend-C18 2.1 x 50 mm; eluents: water / acetonitrile, 0.1% formic acid
Would you please tag the item criterion met when its RP-LC retention time is 900 s or above, and criterion not met when it is below?

O=C1CN(S(=O)(=O)c2cc(F)ccc2F)C2(CCCCC2)CN1CC1CC1; criterion met
CCCn1nnc(NCc2ccc(-c3ccc(Br)cc3Br)o2)n1; criterion met
O=C(O)Cc1sc(Nc2ccccc2)nc1-c1ccccc1; criterion not met
Cc1ccc(C)c(NS(=O)(=O)c2cn(C(C)C)c3ncccc23)c1; criterion met
COC(=O)C1=C(C)N(C2CCCCC2)C(=O)C1(NC(=O)c1cccc(OC)c1)C(F)(F)F (stereo not given); criterion met

Request: Check the entry O=C(NC1CCCCC1N1C(=O)CSC1=O)c1ccc[nH]c1=O (stereo not given) : does RP-LC retention time equal or exceed 900 s?
Response: criterion not met

Request: Check the entry `CCCC(=O)NC1(c2nc(C(C)C)no2)CCCCC1` : does RP-LC retention time equal or exceed 900 s?
Response: criterion not met

Request: Check the entry `Cc1ccc(S(=O)(=O)Nc2ccc3nc(N4CCN(CCC#N)CC4)cc(C(=O)O)c3c2)cc1C` : does RP-LC retention time equal or exceed 900 s?
Response: criterion not met

====

test: gradient 5% acetonitrile 3 min, to 50% in 2 min, to 85% in 15 min, held 3 min, 100 µL/min; details: column: Zorbax Extend-C18 2.1 x 50 mm; eluents: water / acetonitrile, 0.1% formic acid
attribute measured: RP-LC retention time (s)
Answer with a number only, understood to be in s.

Cc1cc(Cl)ccc1S(=O)(=O)N1CCCC1c1nc(-c2cccc(F)c2)no1 (centres undefined); 1220
COC(=O)c1c(C)[nH]c(C(=O)N2CCC(CC(=O)N3CCCC3)CC2)c1C; 628
COc1ccc(C2(C(=O)N3CCC(c4nc(CCOCc5ccccc5)no4)C3)CC2)cc1 (centres undefined); 958

Request: Annotate the compound `O=C(NCC1CCCCC1)c1ccc(NC(=O)C2CCC2)cc1N1CCOCC1` with its measured RP-LC retention time.
Response: 930

Request: Annotate the compound Cc1nnc2n1CCC(N(C)C(=O)c1ccsc1)CC2 (centres undefined) with its measured RP-LC retention time.
Response: 566

Request: Annotate the compound `Cc1ccc(C)c(-c2nc(-c3ccc4c(c3)oc(=O)n4C)no2)c1` with its measured RP-LC retention time.
Response: 1220

Request: Annotate the compound `CCOc1ccc(Br)cc1CNc1ccc2[nH]c(=O)[nH]c2c1` with its measured RP-LC retention time.
Response: 668

Request: Annotate the compound `Cc1ccc(NC(=O)c2cn3c(n2)CCCC3)c(C)c1` with its measured RP-LC retention time.
Response: 644

====

assay: gradient 5% acetonitrile 3 min, to 50% in 2 min, to 85% in 15 min, held 3 min, 100 µL/min; settings: column: Zorbax Extend-C18 2.1 x 50 mm; eluents: water / acetonitrile, 0.1% formic acid
attribute measured: RP-LC retention time (s)
Answer with a number only, understood to be in s.

CCCCC(C)C(=O)NC1CCN(C2=NS(=O)(=O)C(c3ccc(C)cc3)=C2C)CC1 (stereo not given); 935
Cc1cccc(C)c1OCC(O)Cn1c(C2CC2)nc2ccccc21 (stereo not given); 710
COc1ccc(C2Cn3cnc(C(=O)N4CCC(C(=O)NCC5CCCCC5)CC4)c3CO2)cc1 (stereo not given); 821
CCc1noc(-c2ccnc(-n3cnc(C(=O)Nc4ccc(F)cc4C)c3)c2)n1; 990
COc1ccccc1CC1C(=O)Nc2ccc(Br)cc21 (stereo not given); 976
CCCN(C)CC1(O)CCC2(CCN(C(=O)c3sccc3C)CC2)CC1; 560

Request: Annotate the molecule `CC(=O)c1ccc(S(=O)(=O)N(Cc2cccs2)Cc2cccn2C)cc1` with its measured RP-LC retention time.
Response: 983

====

assay: gradient 5% acetonitrile 3 min, to 50% in 2 min, to 85% in 15 min, held 3 min, 100 µL/min; conditions: column: Zorbax Extend-C18 2.1 x 50 mm; eluents: water / acetonitrile, 0.1% formic acid
Listed below: RP-LC retention time values for each entry.
Answer with a number only, understood to be in s.

Please review the following examples before continuing.
CC1=C(c2ccccc2)S(=O)(=O)N=C1N1CCCN(C(=O)c2ccccc2Cl)CC1; 811
O=C(CCCn1c(=O)c2cccn2c2ccc(F)cc21)NCCc1c[nH]c2ccccc12; 858
CCn1cc(C2=CCN(C(=O)Nc3ccc(OC)cc3)CC2)c2cccnc21; 811
COc1ccc(N2CCN(C(=O)CCC(=O)N3CCCn4nc(C)cc43)CC2)cc1; 606
O=S(=O)(c1cccs1)N1CCC(n2cnnc2-c2ccccc2)CC1; 744
CCOCCCNC(=O)N1CCCCCC1c1ccc(C)cc1 (centres undefined); 954
COC(=O)c1cc2c(=O)n(-c3ccc(Cl)c(Cl)c3)ccc2nc1C; 915
CC(=O)c1cccc(NC(=O)Cn2cc(-c3ccccc3)c3ncn(C4CC4)c(=O)c32)c1; 877

Request: Annotate the molecule `CN1C(=O)[C@H]2CN(Cc3ccc(F)cc3F)C[C@H]2C1=O` with its measured RP-LC retention time.
Response: 587

====

assay: gradient 5% acetonitrile 3 min, to 50% in 2 min, to 85% in 15 min, held 3 min, 100 µL/min; settings: column: Zorbax Extend-C18 2.1 x 50 mm; eluents: water / acetonitrile, 0.1% formic acid
Listed below: RP-LC retention time values for each entry.
Answer with a number only, understood to be in s.

Please review the following examples before continuing.
Cc1cccc(-c2nnc(-c3cc(S(=O)(=O)N4CCOCC4)ccc3Cl)o2)c1; 992
O=C(CCS(=O)(=O)c1ccc(Cl)cc1)Nc1nnc(Cc2ccc3c(c2)OCO3)o1; 726
Cc1ccccc1C(=O)Nc1ccc(C(=O)N2CCCC(O)c3cc(Cl)ccc32)c(C)c1 (centres undefined); 899
CC(C)(C)c1ccc(S(=O)(=O)N2CCC(C(=O)NCc3cscn3)CC2)cc1; 869
Cc1ccc(CNC(=O)c2cc3n(n2)CCCN(Cc2ccc(Cl)cc2)C3=O)o1; 655
Cc1cc(=O)n(CC(=O)N(C)c2ccccc2)c(N2CCCCC2)n1; 669
Cc1cc(N2CCCC2)n2nc(CN3CCc4ccccc4C3)nc2n1; 598
CCOC(=O)c1[nH]c(C)c(CCC(=O)N2CCC(C(=O)NCc3ccccc3OC)CC2)c1C; 800

Request: Annotate the molecule N#Cc1cccc(C(=O)N2CCCC2c2nc(-c3cccc(C(F)(F)F)c3)no2)c1 (centres undefined) with its measured RP-LC retention time.
Response: 1050

====

test: gradient 5% acetonitrile 3 min, to 50% in 2 min, to 85% in 15 min, held 3 min, 100 µL/min; conditions: column: Zorbax Extend-C18 2.1 x 50 mm; eluents: water / acetonitrile, 0.1% formic acid
attribute measured: RP-LC retention time (s)
Answer with a number only, understood to be in s.

Please review the following examples before continuing.
COc1ccc(NC(=O)c2cnc3c(c2)c(=O)n(C)c(=O)n3-c2ccccc2)cc1F; 858
CC(C)S(=O)(=O)c1ccc(Cc2nnc(NC(=O)c3ccc4ncsc4c3)o2)cc1; 641
CN(Cc1ccccc1)C(=O)C1CCN(S(=O)(=O)c2ccc3c(c2)sc(=O)n3C)CC1; 852

Request: Annotate the compound `O=C(Nc1cnc(-c2cccnc2)nc1)C1CCC1` with its measured RP-LC retention time.
Response: 659

Request: Annotate the compound O=S(=O)(NCC(c1ccccc1)S(=O)(=O)c1cccs1)c1cccs1 (centres undefined) with its measured RP-LC retention time.
Response: 878

Request: Annotate the compound `O=c1n(Cc2ccccc2)nc2c(S(=O)(=O)N3CCCCC3)cccn12` with its measured RP-LC retention time.
Response: 647

Request: Annotate the compound `CCOc1ncccc1C(=O)NCc1cc(-c2cccs2)on1` with its measured RP-LC retention time.
Response: 831

Request: Annotate the compound `CCc1cc(-c2csc(S(=O)(=O)N3CCN(C4CCCCC4)CC3)c2)on1` with its measured RP-LC retention time.
Response: 723

Request: Annotate the compound COc1ccc2c(c1)C1(CCN(S(=O)(=O)c3ccc(F)c(F)c3)C1)C(=O)N2C (centres undefined) with its measured RP-LC retention time.
Response: 964
